Test system: SK-OV-3 ovarian
assay_overview: NCI tumour cell line growth inhibition, 48 h
For each record, write down the corresponding GI50.

Field GI50 (entry `COc1ccc(-c2nc(/C=N/Nc3cc(C)nc4ccc(Cl)cc34)c(C)o2)cc1` ) reads 1.65 µM

Field GI50 (entry `c1csc(-c2cn3nc(-c4c[nH]c5ccccc45)sc3n2)c1` ) reads 2.8 µM

Field GI50 (entry `NC(=O)c1ccc(I)c(N=O)c1` ) reads > 100 µM

Field GI50 (entry O=c1ccn(C2CC(O)C(CO)O2)c(=O)[nH]1 (centres undefined) ) reads > 5000 µM

Field GI50 (entry `Cc1cc(NCCN(C(C)C)C(C)C)nc(/N=C(\N)Nc2ccc(Cl)c(C(F)(F)F)c2)n1` ) reads 1.26 µM

Field GI50 (entry Cc1cc(O)c(C2=NN(c3ccc(S(N)(=O)=O)cc3)C(c3ccccc3Cl)C2)cc1Cl (centres undefined) ) reads 3.63 µM

Field GI50 (entry `Cc1cc(C(=C2C=CC(=Nc3ccccc3)C=C2)c2ccc(Nc3ccccc3)cc2)ccc1N` ) reads 1.52 µM

Field GI50 (entry `C[C@]12CCc3sc(NCCc4ccccc4)nc3C1=CC[C@@H]1[C@@H]2CC[C@]2(C)C(=O)CC[C@@H]12` ) reads > 100 µM

Field GI50 (entry CCC1CN2C(=N1)c1ccccc1-c1cc(Cl)ccc12 (centres undefined) ) reads 4.27 µM

Field GI50 (entry `N.N.N.N.N.[Cl-].[Co+3].c1ccc(-c2nn[n-]n2)cc1` ) reads > 100 µM

Field GI50 (entry `O=C1c2cccc(NCCN=Cc3cc([N+](=O)[O-])ccc3O)c2C(=O)c2c(NCCN=Cc3cc([N+](=O)[O-])ccc3O)cccc21` ) reads 18.9 µM

Field GI50 (entry `COc1cccc(C2=C(c3c(C)n(C)c4ccccc34)C(=O)NC2=O)c1` ) reads > 25 µM

Field GI50 (entry `NC(=O)c1c(NC(=O)c2ccccn2)sc2c1CCC(=O)C2` ) reads > 100 µM

Field GI50 (entry `COc1cc2c3c(n(CCCCN)c(=O)c2cc1OC)-c1cc2c(cc1C3=O)OCO2` ) reads 1.23 µM

----------
Test system: 786-0 renal
assay_overview: NCI tumour cell line growth inhibition, 48 h; in the data active = GI50 below about 0.43 µM; inactive = the rest
Select the correct class. Options are active, inactive and nothing else.

For this compound, state the assay outcome: `O=C(Cn1c(=O)c(-c2ccccc2)nc2ccccc21)Nc1ccc(F)cc1`
inactive

For this compound, state the assay outcome: CCn1cc(C(=O)N/N=C/c2ccccc2)c(=O)c2cc(F)c(N3CCNC(C)C3)c(F)c21 (stereo not given)
inactive

For this compound, state the assay outcome: CCC(C)[C@H]1O[C@]2(C=C[C@@H]1C)C[C@@H]1C[C@@H](C/C=C(\C)[C@@H](OC3C[C@H](OC)C(O[C@H]4C[C@H](OC)[C@@H](O)[C@H](C)O4)[C@H](C)O3)[C@@H](C)/C=C/C=C3\CO[C@@H]4[C@H](O)C(C)=C[C@@H](C(=O)O1)[C@]34O)O2 (stereo not given in full)
inactive

For this compound, state the assay outcome: `N.N.N.N.N.[Cl-].[Co+3].c1ccc(-c2nn[n-]n2)cc1`
inactive

For this compound, state the assay outcome: O=c1ccn(C2CC(O)C(CO)O2)c(=O)[nH]1 (stereo not given)
inactive

For this compound, state the assay outcome: COC1/C=C/C(C)C(C(C)C(OC)C(C)CCC(=O)C(C)C(C/C=C/N(C)C=O)OC)OC(=O)/C=C/C=C(\C)CC(OC)CC2=CC(=O)O[C@H](C2)C(C)C(OC)CC(OC)/C=C/C(C)C(OC)C1 (stereo not given in full)
active

For this compound, state the assay outcome: Cc1ccc(C(CC(=O)c2ccccc2)C2C(=O)NC(=O)NC2=O)cc1 (stereo not given)
inactive

For this compound, state the assay outcome: `CCCCC[C@H]1C/C=C2/C(=O)C=C[C@@H]2C/C=C\CCCC(=O)O[C@@H](CCCCC)C/C=C2/C(=O)C=C[C@@H]2C/C=C\CCCC(=O)O1`
active

For this compound, state the assay outcome: `C[C@]12CCc3sc(NCCc4ccccc4)nc3C1=CC[C@@H]1[C@@H]2CC[C@]2(C)C(=O)CC[C@@H]12`
inactive

For this compound, state the assay outcome: Nc1nc(N)c2nc(CNc3ccc(C(=O)NC(CC(=O)O)C(=O)O)cc3)cnc2n1 (stereo not given)
active

For this compound, state the assay outcome: `O=c1oc(Cl)c(Cl)c2ccccc12`
inactive

For this compound, state the assay outcome: `Cc1cc(C(=C2C=CC(=Nc3ccccc3)C=C2)c2ccc(Nc3ccccc3)cc2)ccc1N`
active

For this compound, state the assay outcome: `O=C(Nc1cccc(-n2cc(-c3ccncc3)c(-c3ccc(Cl)c(O)c3)n2)c1)c1ccc(N2CCOCC2)c(C(F)(F)F)c1`
inactive

For this compound, state the assay outcome: `NC(=O)c1ccccc1Nc1ccc2nnc(-c3ccncc3)n2n1`
inactive

For this compound, state the assay outcome: `COc1cccc2c1ccc1nc3cccc(C(=O)N[C@H](C)CN(C)C)c3nc12`
active

For this compound, state the assay outcome: `CCN(Cc1ccc(F)cc1)c1ccc(CO)c(F)c1`
inactive

For this compound, state the assay outcome: `O=S(=O)(Nc1ccc(Br)c(Cl)c1)c1ccc(-c2cnc(C3CC3)o2)cc1`
inactive

For this compound, state the assay outcome: `COc1cc(Nc2c(C#N)cnc3cc(OCCCN4CCN(C)CC4)c(OC)cc23)c(Cl)cc1Cl`
inactive

For this compound, state the assay outcome: `COc1cccc(C2=C(c3c(C)n(C)c4ccccc34)C(=O)NC2=O)c1`
inactive

For this compound, state the assay outcome: `O=c1cc(-c2ccccc2F)[nH]c2ccc(N3CCCC3)cc12`
active

----------
For each record, write down the corresponding TGI.
System: U251 CNS
assay_overview: NCI tumour cell line growth inhibition, 48 h
State the answer as a number, implicitly in µM.

Field TGI (entry `O=C(Nc1cccc(-n2cc(-c3ccncc3)c(-c3ccc(Cl)c(O)c3)n2)c1)c1ccc(N2CCOCC2)c(C(F)(F)F)c1` ) reads 24.9

Field TGI (entry `CCOc1ccc(/C(Cl)=C(\C=O)c2ccc(OC)c(OC)c2)cc1OCC` ) reads 97.5

Field TGI (entry `CN1CCN(CCOc2ccc(-c3cnc4c(-c5ccc(C(F)(F)F)cc5)cnn4c3)cc2)CC1` ) reads 2.67

Field TGI (entry COC(=O)[C@@]12OC[C@]34[C@H]([C@@H](O)[C@@H]1O)[C@@]1(C)[C@H](O)C(=O)C=C(C)[C@@H]1C[C@H]3OC(=O)C(OC(C)=O)[C@@H]24 (stereo partly specified) ) reads 0.0443

Field TGI (entry COC1/C=C/C(C)C(C(C)C(OC)C(C)CCC(=O)C(C)C(C/C=C/N(C)C=O)OC)OC(=O)/C=C/C=C(\C)CC(OC)CC2=CC(=O)O[C@H](C2)C(C)C(OC)CC(OC)/C=C/C(C)C(OC)C1 (stereo partly specified) ) reads 0.0289

Field TGI (entry Fc1ccc(C(OCCN2CCC3CCC(C2)N3C/C=C/c2ccco2)c2ccc(F)cc2)cc1 (stereo unspecified) ) reads 21.1

Field TGI (entry `Cc1cc(N(CCC#N)CCC#N)ccc1/C(N=Nc1ccc(C(=O)O)cc1)=N\NC(=O)c1cc(Cl)ccc1O` ) reads 63.1

----------
Test system: MDA-MB-435
assay_overview: NCI tumour cell line growth inhibition, 48 h
readout_label: GI50

Field GI50 (entry CCC1CN2C(=N1)c1ccccc1-c1cc(Cl)ccc12 (stereo not drawn) ) reads 4.39 µM

Field GI50 (entry `CN1CCN(CCOc2ccc(-c3cnc4c(-c5ccc(C(F)(F)F)cc5)cnn4c3)cc2)CC1` ) reads 1.61 µM

Field GI50 (entry `O=C(Cn1c(=O)c(-c2ccccc2)nc2ccccc21)Nc1ccc(F)cc1` ) reads > 100 µM

----------
Tested on: SNB-75 CNS
assay_overview: NCI tumour cell line growth inhibition, 48 h
Assign 1 to entries whose TGI meets or exceeds 30 µM; assign 0 to the rest.

Given the entry `CCN(Cc1ccc(F)cc1)c1ccc(CO)c(F)c1` , answer whether its TGI meets or surpasses 30 µM.
1

Given the entry CCCCCCCCCCCCCCCCOCC(CC(F)(F)P(=O)(OCC)OCC)OC(C)=O (stereo not given) , answer whether its TGI meets or surpasses 30 µM.
1

Given the entry COC(=O)C1CN=CN1CCc1ccccc1 (stereo not given) , answer whether its TGI meets or surpasses 30 µM.
1

Given the entry CC1CC2OC(=O)C(C)C2CC2(C)C(OC3OC(CO)C(O)C(O)C3O)OCCC12 (stereo not given) , answer whether its TGI meets or surpasses 30 µM.
1

Given the entry `CCOC(=O)c1c2c(n(Cc3ccc(Cl)cc3Cl)c1C)-c1nc[nH]c1C(=O)C2=O` , answer whether its TGI meets or surpasses 30 µM.
0

Given the entry `O=C(CCc1ccc(O)c(O)c1)NCCc1cc(O)cc(O)c1` , answer whether its TGI meets or surpasses 30 µM.
1

Given the entry `CCCCC[C@H]1C/C=C2/C(=O)C=C[C@@H]2C/C=C\CCCC(=O)O[C@@H](CCCCC)C/C=C2/C(=O)C=C[C@@H]2C/C=C\CCCC(=O)O1` , answer whether its TGI meets or surpasses 30 µM.
0

Given the entry `C[C@H](NC(=O)c1ccc(CNC(=O)/C=C/c2cccc(Oc3ccccc3)c2)cc1)c1ccccc1` , answer whether its TGI meets or surpasses 30 µM.
1

Given the entry `CC1=CC(=O)c2ccccc2C1=O` , answer whether its TGI meets or surpasses 30 µM.
0

Given the entry `Cc1cc(N(CCC#N)CCC#N)ccc1/C(N=Nc1ccc(C(=O)O)cc1)=N\NC(=O)c1cc(Cl)ccc1O` , answer whether its TGI meets or surpasses 30 µM.
1

Given the entry `Clc1ccc(N=Nc2nc3ccccc3nc2N=Nc2ccc(Cl)cc2Cl)c(Cl)c1` , answer whether its TGI meets or surpasses 30 µM.
1

Given the entry `COc1ccc(-c2nc(-c3ccccc3)c(-c3ccccc3)[nH]2)cc1OC1CCCC1` , answer whether its TGI meets or surpasses 30 µM.
1

Given the entry `O=c1c2nc3ccccc3c(=O)n2ncn1-c1ccccc1Cl` , answer whether its TGI meets or surpasses 30 µM.
1

Given the entry `C[C@H](CCC(=O)O)[C@H]1CC[C@@]2(C)[C@@H]3C(=O)C[C@H]4C(C)(C)[C@@H](O)CC[C@]4(C)[C@H]3C(=O)C[C@]12C` , answer whether its TGI meets or surpasses 30 µM.
1

Given the entry `CNC(=O)c1cccc2cc(Oc3ccnc4cc(OCC5(N)CC5)c(OC)cc34)ccc12` , answer whether its TGI meets or surpasses 30 µM.
0

Given the entry CC(C)(C)c1cc(C2=NNC(c3ccccc3)C2)cc(C(C)(C)C)c1O (stereo not given) , answer whether its TGI meets or surpasses 30 µM.
0

Given the entry `O=C(CC(=O)C1=CNc2ccccc2S1)C(=O)Nc1ccc(Cl)cc1` , answer whether its TGI meets or surpasses 30 µM.
1

Given the entry COC(=O)/C(=N\NC(=O)C[N+](C)(C)C)C(C(=O)OC)C(=O)C(=O)Nc1ccccc1C(N)=O (stereo not given) , answer whether its TGI meets or surpasses 30 µM.
1

Given the entry Brc1cc(CCOC2CCCCO2)c(-c2sccc2CCOC2CCCCO2)s1 (stereo not given) , answer whether its TGI meets or surpasses 30 µM.
1

Sourced from PubChem BioAssay (NCI)
